Examples of binders with documented IC50 follow.
Molecular target: T1, recombinant soluble human IL-6R (human, UniProt P08887 20-365)
T1 construct: also called sIL-6R; shIL-6R
T1 sequence: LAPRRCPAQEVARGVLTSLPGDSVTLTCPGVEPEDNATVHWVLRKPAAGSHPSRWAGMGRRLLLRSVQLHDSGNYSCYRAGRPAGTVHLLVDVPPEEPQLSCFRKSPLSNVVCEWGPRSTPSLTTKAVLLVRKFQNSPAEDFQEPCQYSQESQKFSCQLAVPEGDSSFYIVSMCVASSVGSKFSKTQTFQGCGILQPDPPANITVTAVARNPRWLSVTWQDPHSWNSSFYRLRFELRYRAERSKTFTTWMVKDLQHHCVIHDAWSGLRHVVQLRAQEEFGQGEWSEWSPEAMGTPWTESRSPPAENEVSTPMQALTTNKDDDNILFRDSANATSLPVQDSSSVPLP
Assay: gp130 ELISA (competition), parallel human arm: 10 ng/mL human IL-6R, 50 ng/mL human IL-6
Output spec: scalar in nM, unitless text.

# example entries with known answers
3C12 (VHH, Llama ICVD from library 37-3, produced in E. coli; also called VIL-3C12; not shown: C-terminal Flag and 6xHis tags from vector pMEK222) VHH: EVQLVESGGGLAQLGGSLRLSCVASGNIFSSNTAGWFRQAPGKQREWVAGISIGGMPAYADSVKGRFTISRDNAKNTVYLQMNSLKPEDTAVYYCATGGTEYDYWGQGTQVTVSS: 3.53
4D3 (VHH, Llama ICVD from library 46-3, produced in E. coli; also called VIL-4D3; not shown: C-terminal Flag and 6xHis tags from vector pMEK222) VHH: EVQLVESGGGSVQAGESLTLSCVASISTFSQNAMGWFRQAAGKRRESVARISSSGNVGYTDAVKGRFTMSRDNAKKTVYLQMNSLKPEDTAVYYCNAYSMSGELAAPWGQGTQVTVSS: 0.691

Input line: Which value of IC50 has been reported for 7F6 (VHH, also called VIL-7F6; 'Wild type' 7F6; not shown: C-terminal Flag and 6xHis tags from vector pMEK222) VHH: EVQLVESGGGLVQAGGSTRLTCLASGSISSINVIGWYRQAPGKQRELVAMIGRGEGANYGDFAKGRFTISRDNSKNTVYLQMNSLKPEDTAVYYCYADYEDRDSPFNGSWGQGTQVTVSS in the records?
Output line: 0.424
